experiment: Pharmacokinetics in plasma after i.v. injection; parameters: species or system NOD/SCID female mice; conditions: female, NOD/SCID, mouse, in vivo, iv, 35 umol/kg, terminal half-life
reported.endpoint: half-life (min)
The figure you give is taken to be in min; do not add the unit.

In: So what does the record say about half-life for CCC1(O)C(=O)OCc2c1cc1n(c2=O)Cc2cc3c(NC(=O)OCc4ccc(OC5OC(C(=O)O)C(O)C(O)C5O)cc4)cccc3nc2-1 [9AC-G^W, 9-aminocamptothecin-β-D-glucuronide] ?
Out: 38.6

====

assay: Pharmacokinetics in plasma after i.v. injection; set-up: species or system NOD/SCID female mice; conditions: female, NOD/SCID, mouse, in vivo, iv, 35 umol/kg, initial half-life
reported.endpoint: half-life (min)
Response body: numeric value in min, unit text excluded.

In: // lookup half-life for CCC1(O)C(=O)OCc2c1cc1n(c2=O)Cc2cc3c(NC(=O)OCc4ccc(OC5OC(C(=O)O)C(O)C(O)C5O)cc4)cccc3nc2-1 [9AC-G^W, 9-aminocamptothecin-β-D-glucuronide]
Out: 9.3
